Numbers sourced from patent US7045532B2.

biological target: ACE-2 (Rattus norvegicus, UniProt Q5EGZ1); test: ACE-2 Competitive Substrate Assay, rat ACE-2; format: biochemical; conditions: Ki class; compounds tested in 5% DMSO, 12 compound concentrations
Sequence (Q5EGZ1 18-805): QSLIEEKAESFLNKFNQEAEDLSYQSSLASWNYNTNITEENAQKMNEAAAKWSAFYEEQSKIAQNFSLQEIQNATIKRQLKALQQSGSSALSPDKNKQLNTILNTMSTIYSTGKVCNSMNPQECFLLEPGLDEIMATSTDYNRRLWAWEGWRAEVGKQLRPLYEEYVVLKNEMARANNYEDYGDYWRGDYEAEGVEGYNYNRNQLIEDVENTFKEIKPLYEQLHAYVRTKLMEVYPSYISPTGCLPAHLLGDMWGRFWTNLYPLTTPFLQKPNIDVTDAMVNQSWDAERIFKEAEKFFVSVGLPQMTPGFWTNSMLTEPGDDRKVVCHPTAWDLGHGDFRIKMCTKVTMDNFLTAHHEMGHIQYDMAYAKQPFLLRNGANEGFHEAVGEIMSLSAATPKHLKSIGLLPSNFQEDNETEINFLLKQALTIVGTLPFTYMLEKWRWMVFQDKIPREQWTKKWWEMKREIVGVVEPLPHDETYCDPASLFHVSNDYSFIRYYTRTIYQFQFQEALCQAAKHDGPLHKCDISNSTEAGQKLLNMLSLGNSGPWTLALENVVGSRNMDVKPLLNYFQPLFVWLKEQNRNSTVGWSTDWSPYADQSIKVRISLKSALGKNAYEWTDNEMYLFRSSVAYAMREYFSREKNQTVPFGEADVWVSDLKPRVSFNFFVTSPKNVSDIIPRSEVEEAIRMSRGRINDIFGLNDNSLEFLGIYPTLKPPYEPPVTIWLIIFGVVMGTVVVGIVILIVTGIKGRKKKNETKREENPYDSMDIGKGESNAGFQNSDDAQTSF
pKi: −log10 of the molar value.
result.type: pKi

CC(C)CC(N[C@@H](Cc1cncn1Cc1ccc(F)cc1)C(=O)O)C(=O)O (single isomer, unassigned) [II]	> 7.00
CC(C)C[C@H](N[C@@H](Cc1ccn(Cc2ccccc2)n1)C(=O)O)C(=O)O [IN]	> 7.00
Cc1cc(C)cc(Cn2cncc2C[C@H](NC(CC(C)C)C(=O)O)C(=O)O)c1 (single isomer, unassigned) [HQ]	> 7.00
CC(C)CC(N[C@@H](Cc1cncn1Cc1ccc2c(c1)OCO2)C(=O)O)C(=O)O (single isomer, unassigned) [JE]	> 7.00
CC(C)CC(N[C@@H](Cc1cncn1Cc1cc(Cl)ccc1Cl)C(=O)O)C(=O)O (single isomer, unassigned) [JB]	> 7.00
CC(C)CC(N[C@@H](Cc1cncn1Cc1cccc(Cl)c1)C(=O)O)C(=O)O (single isomer, unassigned) [HC]	> 7.00

What value of pKi has been reported for the following compound? CC(C)CC(N[C@@H](Cc1cncn1Cc1ccc(OC(F)(F)F)cc1)C(=O)O)C(=O)O (single isomer, unassigned) [HS]
6.30 to 7.00

Field request: pKi | item: CC(C)CC(N[C@@H](Cc1cncn1Cc1ccc(Cl)c(Cl)c1)C(=O)O)C(=O)O (single isomer, unassigned) [GW]
> 7.00
